Target: hemoglobin (20% hct blood) (Homo sapiens, UniProt P68871+P69905)
Construct: Normal whole blood was collected from adult healthy donors; from tissue; host or cells: normal human whole blood (red blood cells), adult healthy donors
Sequence (P69905 2-142 limits assumed): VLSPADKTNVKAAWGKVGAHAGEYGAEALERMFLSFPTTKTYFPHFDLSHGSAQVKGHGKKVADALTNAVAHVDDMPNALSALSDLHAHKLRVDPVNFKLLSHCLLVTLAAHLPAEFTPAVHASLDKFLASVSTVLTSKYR
Sequence (P68871 2-147 limits assumed): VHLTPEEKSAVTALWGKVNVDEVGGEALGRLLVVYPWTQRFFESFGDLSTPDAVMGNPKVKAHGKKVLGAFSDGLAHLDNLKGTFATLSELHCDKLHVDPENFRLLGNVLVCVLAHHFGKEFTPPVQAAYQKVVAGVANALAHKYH
Test: Dose-dependent whole blood OEC studies
Assay type: cell-based
Settings: 0.5 mM compound, 37° C., 1 hr
Procedure: Materials: Normal whole blood was collected from adult healthy donors at the Virginia Commonwealth University after informed consent. The use of these human samples is in accordance with regulations of the IRB for Protection of Human Subjects. Compounds (50 mM-100 mM concentration in DMSO) were stored at 15° C. or room temperature until use. To 2 ml 20% hct blood, 0.2 or 0.5 or 1 mM compound was added and kept shaking at 37° C. for 1 hr. […]
Assay endpoint: delta p50 0.5 mM (%)

(P) [2H]C([2H])(Oc1cccc(O)c1C=O)c1cncnc1-c1c(F)cnn1C(C)C
(Q) CC(C)n1nccc1-c1ncccc1COc1ccc2ncncc2c1C=O
(R) [2H]C([2H])([2H])C(n1nccc1-c1ncncc1COc1cccc(O)c1C=O)C([2H])([2H])[2H]
(S) CC(C)n1nccc1-c1ncncc1COc1ccc2cccnc2c1C=O [Example 55]
# desc sort on delta p50 0.5 mM across 4 compounds The response must list the labels following the requested ordering. S, Q, P, R
(S: −8.80%, Q: −18.10%, P: −30.20%, R: −46.10%)

(A) [2H]C([2H])([2H])C(n1nccc1-c1ncccc1COc1ccc2ncoc2c1C=O)C([2H])([2H])[2H]
(B) [2H]C([2H])(Oc1cc(F)cc(O)c1C=O)c1cncnc1-n1ccnc1C(C)C
delta p50 0.5 mM comparison. Which is larger, A or B ? Indicate which entry you chose by stating its label. B
(B: −22.10%, A: −39.70%)

(1) [2H]C([2H])(Oc1cccc(O)c1C=O)c1cncnc1-n1ccnc1C(C)C
(2) CC(C)n1nccc1-c1ncncc1COc1ccc2ncoc2c1C=O
(3) [2H]C([2H])([2H])C(n1nccc1-c1ncncc1COc1cc(F)cc(O)c1C=O)C([2H])([2H])[2H]
Order the records by delta p50 0.5 mM, with each subsequent value no larger than the one before. The response must list the labels following the requested ordering. 3, 1, 2

(A) [2H]C([2H])([2H])C(n1ncc(F)c1-c1ncncc1COc1cccc(O)c1C=O)C([2H])([2H])[2H]
(B) CC(C)n1nccc1-c1ncccc1COc1ccc2scnc2c1C=O
delta p50 0.5 mM comparison. Which is larger, A or B ? Indicate which entry you chose by stating its label. B
(B: −14.70%, A: −29.80%)

----------
Test: Pharmacokinetic study in rats (plasma and red blood cell)
Format: in vivo
Conditions: male, Sprague-Dawley, red blood cells; rat, oral, 7.2 mg/kg, red blood cell (calculated by mass balance from whole blood and plasma); read-out: AUC0-24 h RBC
Protocol: Rats (Sprague-Dawley, male, 220-280 g) were dosed with GBT-440 (HCl salt) and one of three compounds corresponding to Example 27, 29, and 38. The rats received oral (7.2 mpk) doses of the compound. […] Whole blood sample collection: Blood samples ([…]) were collected at pre-dose, 15, 30 min, 1, 2, 4, 8, 12 and 24 h via jugular vein into tubes and anticoagulated with 3.2% TSC (trisodium citrate). […] The sampling time was recorded accordingly. […]
Where a name gives a salt, the structure may show the parent alone.
Assay endpoint: AUC(0-t) (µg·h/mL)

# Compound, Value observed
data = [
    ("Cl.[2H]C([2H])(Oc1cccc(O)c1C=O)c1cccnc1-n1ccnc1C(C)C [Example 29]", 12000),
]

(P) Cl.[2H]C([2H])(Oc1cc(F)cc(O)c1C=O)c1cccnc1-c1ccnn1C(C)C [Example 27]
(Q) [2H]C([2H])(Oc1cccc(O)c1C=O)c1cncnc1-c1ccnn1C(C)C [Example 38]
(R) CC(C)n1nccc1-c1ncccc1COc1cccc(O)c1C=O [GBT-440 (HCl salt), reference compound]
Exam item: list the entries in increasing order of AUC(0-t). The response must list the labels following the requested ordering. P, Q, R

----------
Test: Pharmacokinetic study in rats (plasma and red blood cell)
Format: in vivo
Conditions: male, Sprague-Dawley, red blood cells; rat, oral, 7.2 mg/kg, red blood cell; read-out: T1/2 RBC (converted)
Counter-ions that a name gives are not always drawn.
Assay endpoint: half-life (h)

# Molecule, Endpoint unit, half-life
records = [
    ("[2H]C([2H])(Oc1cccc(O)c1C=O)c1cncnc1-c1ccnn1C(C)C", "h", 11),
]

(A) Cl.[2H]C([2H])(Oc1cc(F)cc(O)c1C=O)c1cccnc1-c1ccnn1C(C)C
(B) Cl.[2H]C([2H])(Oc1cccc(O)c1C=O)c1cccnc1-n1ccnc1C(C)C
(C) CC(C)n1nccc1-c1ncccc1COc1cccc(O)c1C=O [GBT-440 (HCl salt), reference compound]
Order the records by half-life, with each subsequent value no larger than the one before. The response must list the labels following the requested ordering. A, C, B

----------
Test: Solubility in JP1, JP2 and FaSSIF buffers
Type: physicochemical
Conditions: 25 °C, simulated gastric fluid, thermodynamic from solid; JP1 buffer pH 1.2, 24 hr, room temperature; read-out: JP1 Solubility
Protocol: Conditions: 1. JP1 buffer (84 mM HCl, 34.22 mM NaCl, pH 1.2); 2. JP2 buffer (50 mM phosphate buffer at pH 6.8); 3. […] Procedures: 1. accurately weighed about 2 mg test compounds and controls in whatman vials, then transferred 450 μL buffer in to the vials; 2. […] Determined the test compound concentration of the diluents and filtrates using HPLC-UV.
Where a name gives a salt, the structure may show the parent alone.
Assay endpoint: solubility at 24 h (µg/mL)

(P) [2H]C([2H])(Oc1cccc(O)c1C=O)c1cncnc1-c1ccnn1C(C)C
(Q) Cl.[2H]C([2H])(Oc1cc(F)cc(O)c1C=O)c1cccnc1-c1ccnn1C(C)C
(R) CC(C)n1nccc1-c1ncccc1COc1cccc(O)c1C=O [GBT-440 (HCl salt), reference compound]
# desc sort on solubility at 24 h across 3 molecules The response must list the labels following the requested ordering. R, Q, P

----------
These compounds were tested on CYP3A4-M (Homo sapiens, UniProt P08684); IC50 is the recorded read-out.
Sequence (P08684 whole entry): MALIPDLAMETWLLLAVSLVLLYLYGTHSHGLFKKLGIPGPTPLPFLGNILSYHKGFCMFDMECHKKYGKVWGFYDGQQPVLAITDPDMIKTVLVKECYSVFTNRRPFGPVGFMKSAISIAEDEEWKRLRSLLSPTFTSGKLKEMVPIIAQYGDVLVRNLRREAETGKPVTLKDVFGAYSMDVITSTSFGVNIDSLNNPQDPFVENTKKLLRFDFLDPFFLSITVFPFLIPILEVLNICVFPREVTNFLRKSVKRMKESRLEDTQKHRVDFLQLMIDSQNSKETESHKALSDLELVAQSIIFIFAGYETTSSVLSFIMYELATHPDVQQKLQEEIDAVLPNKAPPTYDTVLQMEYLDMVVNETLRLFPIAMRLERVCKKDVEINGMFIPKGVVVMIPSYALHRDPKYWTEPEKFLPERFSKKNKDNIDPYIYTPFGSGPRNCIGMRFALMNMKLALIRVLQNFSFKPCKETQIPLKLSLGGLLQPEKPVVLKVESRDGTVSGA

In the examples that follow, each entry is paired with its recorded IC50.
# Compound, IC50
measured = [
    ("[2H]C([2H])(Oc1cc(F)cc(O)c1C=O)c1cccnc1-c1ccnn1C(C)C [Example 27b]", "10 µM"),
    ("CC(C)n1nccc1-c1ncccc1COc1cccc(O)c1C=O [GBT440, reference compound]", "> 30 µM"),
]

So what IC50 did [2H]C([2H])(Oc1cccc(O)c1C=O)c1cccnc1-n1ccnc1C(C)C [Example 29e] get with CYP3A4-M (Homo sapiens, UniProt P08684)? > 50 µM

----------
Target: hemoglobin (20% hct blood) (Homo sapiens, UniProt P68871+P69905)
Construct: Normal whole blood was collected from adult healthy donors; from tissue; host or cells: normal human whole blood (red blood cells), adult healthy donors
Assay: Dose-dependent whole blood OEC studies
Type: cell-based
Settings: 0.5 mM compound, 37° C., 1 hr
Assay endpoint: delta p50 0.5 mM (%)

# Mol smiles, Endpoint unit, delta p50 0.5 mM
rows = [
    ("[2H]C([2H])(Oc1ccc2ncoc2c1C=O)c1cccnc1-c1ccnn1C(C)C", "%", "−40.70"),
    ("CC(C)n1nccc1-c1ncsc1COc1cccc(O)c1C=O", "%", "−36.20"),
    ("[2H]C(C)(C)n1nccc1-c1ncccc1COc1cccc(O)c1C=O", "%", "−38.10"),
    ("[2H]C([2H])(Oc1cccc(O)c1C=O)c1c(F)ccnc1-c1ccnn1C(C)C", "%", "−53.7"),
    ("[2H]C([2H])(Oc1ccc2ncoc2c1C=O)c1cncnc1-n1ccnc1C(C)C", "%", "−28.10"),
    ("[2H]C([2H])(Oc1cc(F)cc(O)c1C=O)c1ncccc1-c1ccnn1C(C)C", "%", "−40.80"),
    ("[2H]C([2H])([2H])C(n1nccc1-c1ncccc1COc1cc(F)cc(O)c1C=O)C([2H])([2H])[2H]", "%", "−36.10"),
]

----------
Molecular target: hemoglobin (20% hct blood) (Homo sapiens, UniProt P68871+P69905)
Construct: Normal whole blood was collected from adult healthy donors; from tissue; host or cells: normal human whole blood (red blood cells), adult healthy donors
Test: Dose-dependent whole blood OEC studies
Assay type: cell-based
Conditions: 0.5 mM compound, 37° C., 1 hr
Assay endpoint: delta p50 0.5 mM (%)

In the examples that follow, each entry is paired with its recorded delta p50 0.5 mM.
# Mol smiles, Target, delta p50 0.5 mM [%]
records = [
    ("CC(C)n1nccc1-c1ncccc1COc1ccc2nnsc2c1C=O", "hemoglobin (20% hct blood) (Homo sapiens, UniProt P68871+P69905)", "−8.10"),
    ("[2H]C([2H])(Oc1cccc(O)c1C=O)c1cccnc1-n1ccnc1C1CC1", "hemoglobin (20% hct blood) (Homo sapiens, UniProt P68871+P69905)", "−29.80"),
    ("[2H]C([2H])([2H])C(n1ncc(F)c1-c1ncccc1COc1cccc(O)c1C=O)C([2H])([2H])[2H]", "hemoglobin (20% hct blood) (Homo sapiens, UniProt P68871+P69905)", "−39.20"),
    ("[2H]C([2H])(Oc1ccc(F)c(O)c1C=O)c1cncnc1-c1ccnn1C(C)C", "hemoglobin (20% hct blood) (Homo sapiens, UniProt P68871+P69905)", "−12"),
    ("[2H]C([2H])(Oc1cccc(O)c1C=O)c1cccnc1-c1c(F)cnn1C(C)C", "hemoglobin (20% hct blood) (Homo sapiens, UniProt P68871+P69905)", "−36.10"),
]

(a) CC(C)n1nccc1-c1ocnc1COc1cccc(O)c1C=O
(b) CC(C)n1ncc(F)c1-c1ncncc1COc1cccc(O)c1C=O
For a and b , which recorded delta p50 0.5 mM is lower? Indicate which entry you chose by stating its label. a

(A) [2H]C([2H])(Oc1cc(F)cc(O)c1C=O)c1cccnc1-c1c(F)cnn1C(C)C
(B) CC(C)n1nccc1-c1c(COc2cccc(O)c2C=O)ncn1C
delta p50 0.5 mM comparison. Which is larger, A or B ? Indicate which entry you chose by stating its label. B
